Species: Homo sapiens
Assay: Liver toxicity in human assessed as induction of drug-induced liver injury by measuring verified drug-induced liver injury concern status
assay metric: DILI_Concern

Recorded results for 10 molecules are shown here.
>>> data_value("CN(C)CCC=C1c2ccccc2C=Cc2ccccc21 [CYCLOBENZAPRINE]")
"Less-Dili-Concern"
>>> data_value("NCCCCCC(=O)O [AMINOCAPROIC ACID]")
"No-Dili-Concern"
>>> data_value("COC(=O)C1=C(C)NC(C)=C(C(=O)OCC(C)C)C1c1ccccc1[N+](=O)[O-] (stereo not given) [NISOLDIPINE]")
"Ambiguous-Dili-Concern"
>>> data_value("Clc1ccccc1C(c1ccccc1)(c1ccccc1)n1ccnc1 [CLOTRIMAZOLE]")
"Less-Dili-Concern"
>>> data_value("CC(C)[N+](C)(CCOC(=O)C1c2ccccc2Oc2ccccc21)C(C)C [PROPANTHELINE]")
"No-Dili-Concern"
>>> data_value("CN(C)c1nc(N(C)C)nc(N(C)C)n1 [ALTRETAMINE]")
"Ambiguous-Dili-Concern"
>>> data_value("O=[N+]([O-])O[C@@H]1CO[C@H]2[C@@H]1OC[C@H]2O")
"Ambiguous-Dili-Concern"
>>> data_value("COCCCC/C(=N\\OCCN)c1ccc(C(F)(F)F)cc1 [FLUVOXAMINE]")
"Ambiguous-Dili-Concern"
>>> data_value("N#Cc1ccc(C(c2ccc(C#N)cc2)n2cncn2)cc1 [LETROZOLE]")
"Less-Dili-Concern"
>>> data_value("[82Rb+].[Cl-] [RUBIDIUM CHLORIDE RB 82]")
"No-Dili-Concern"

Record DILI_Concern per entry; entries follow.
1. CC1(C)S[C@@H]2[C@H](NC(=O)C(C(=O)O)c3ccccc3)C(=O)N2[C@H]1C(=O)O (stereo not given in full) [CARBENICILLIN]
2. CCOC(=O)C(C)(C)Oc1ccc(Cl)cc1 [CLOFIBRATE]
3. CC(=O)[C@@]1(O)CC[C@H]2[C@@H]3C=C(C)C4=CC(=O)CC[C@]4(C)[C@H]3CC[C@@]21C
4. CC(N)Cc1ccccc1 (stereo not given) [AMPHETAMINE]
5. Nc1cccc2c1CN(C1CCC(=O)NC1=O)C2=O (stereo not given) [LENALIDOMIDE]
6. O=C(O)C1N=C(c2ccccc2)c2cc(Cl)ccc2NC1=O (stereo not given) [CLORAZEPIC ACID]
7. CCCCC(=O)N(Cc1ccc(-c2ccccc2-c2nnn[nH]2)cc1)[C@H](C(=O)O)C(C)C
8. CC[C@@]1(O)C(=O)OCc2c1cc1n(c2=O)Cc2cc3c(CN(C)C)c(O)ccc3nc2-1 [TOPOTECAN]

Less-Dili-Concern
Less-Dili-Concern
Ambiguous-Dili-Concern
Less-Dili-Concern
Less-Dili-Concern
Ambiguous-Dili-Concern
Less-Dili-Concern
No-Dili-Concern

Would you mind telling me what DILI_Concern value was observed for O=[As][As+](=O)[O-] (stereo not given) [ARSENIC TRIOXIDE] ?
Ambiguous-Dili-Concern

The reported numbers originate from ChEMBL document CHEMBL4028802.
